Reference for the values: the supplement of paper PMC10567573

Listed here: items and their measured protein stability index.
B1: GOLPH3 (parent)
chain: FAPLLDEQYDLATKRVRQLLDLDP

- Variants of: B1
- assay-details: protein stability index of a GFP-peptide fusion (GPS, HEK-293T) (PSI 1-6); higher = more stable;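 also: lentivirally expressed fusions sorted by FACS into six bins by GFP to DsRed ratio, PSI derived from sequencing read proportions per bin multiplied by bin number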
- setup-conditions: c terminus: a fixed tail appended
measurement-kind: protein stability index

>>> df
    mutation_list  result
 0            L4A    1.81
 1           L22A    3.04
 2           R15F    2.06
 3           K14H    1.99
 4           D21Y    1.88
 5            P3W    2.16
 6            Q8E    2.64
 7           K14C    2.29
 8           P24G    2.28
 9            Q8D    2.96
10            Y9S    2.96
11           A12H    2.43
12           L19G    2.26
13           P24Y    1.45
14            L5H    2.42
15           L22C    1.95
16           Q18E    2.06
17            Q8G    2.08
18           A12C    1.57
19           Q18G    2.08
20            L4Y    2.65
21           D21L     2.1
22            P3F    1.52
23            P3L     1.6
24            L5R    1.18
25           D10Y    1.63
26           P24V     2.7
27            Q8M    1.88
28            Q8K    1.75
29            P3H    3.07
30           D10T    1.56
31            Y9F    2.75
32           L11P    2.91
33           L19W    2.27
34            L4G    2.27
35           A12E    2.66
36            Y9W    2.06
37            Y9G    2.24
38           R15M    1.99
39            L5Q    2.45
40            A2E    3.13
41           A12Q    2.16
42           P24H     3.6
43           L22V     2.2
44           D10N    1.59
45           T13S    2.24
46           T13L    2.28
47            D6W    1.88
48           D21V    2.79
49            A2K    3.14
50            D6N    1.54
51            Q8W    1.32
52           L19H    2.09
53           Q18I    2.34
54           A12P    2.04
55           K14G    1.99
56           L19V    2.33
57            Y9K     2.4
58           L20T    2.27
59           D21M    1.85
60           A12I    1.43
61           A12L    1.82
62            L5V    2.21
63            A2N    3.01
64           A12S    2.36
65           L20W    2.11
66           R17Y    1.74
67           L11Q    3.52
68           L11D    3.09
69            D6C    2.25
70            L5S    1.85
71           K14T    2.11
72            D6Y    2.03
73           D21I    1.45
74            F1W    2.46
75           L19T    2.61
76           K14F    1.17
77           P24R    2.28
78           Q18K    2.18
